biological target: JAK1 (Homo sapiens (Human)); test: Z'-LYTE enzymatic activity detection, JAK1; type: biochemical; conditions: test compound 300 nM
Sequence (P23458 whole entry): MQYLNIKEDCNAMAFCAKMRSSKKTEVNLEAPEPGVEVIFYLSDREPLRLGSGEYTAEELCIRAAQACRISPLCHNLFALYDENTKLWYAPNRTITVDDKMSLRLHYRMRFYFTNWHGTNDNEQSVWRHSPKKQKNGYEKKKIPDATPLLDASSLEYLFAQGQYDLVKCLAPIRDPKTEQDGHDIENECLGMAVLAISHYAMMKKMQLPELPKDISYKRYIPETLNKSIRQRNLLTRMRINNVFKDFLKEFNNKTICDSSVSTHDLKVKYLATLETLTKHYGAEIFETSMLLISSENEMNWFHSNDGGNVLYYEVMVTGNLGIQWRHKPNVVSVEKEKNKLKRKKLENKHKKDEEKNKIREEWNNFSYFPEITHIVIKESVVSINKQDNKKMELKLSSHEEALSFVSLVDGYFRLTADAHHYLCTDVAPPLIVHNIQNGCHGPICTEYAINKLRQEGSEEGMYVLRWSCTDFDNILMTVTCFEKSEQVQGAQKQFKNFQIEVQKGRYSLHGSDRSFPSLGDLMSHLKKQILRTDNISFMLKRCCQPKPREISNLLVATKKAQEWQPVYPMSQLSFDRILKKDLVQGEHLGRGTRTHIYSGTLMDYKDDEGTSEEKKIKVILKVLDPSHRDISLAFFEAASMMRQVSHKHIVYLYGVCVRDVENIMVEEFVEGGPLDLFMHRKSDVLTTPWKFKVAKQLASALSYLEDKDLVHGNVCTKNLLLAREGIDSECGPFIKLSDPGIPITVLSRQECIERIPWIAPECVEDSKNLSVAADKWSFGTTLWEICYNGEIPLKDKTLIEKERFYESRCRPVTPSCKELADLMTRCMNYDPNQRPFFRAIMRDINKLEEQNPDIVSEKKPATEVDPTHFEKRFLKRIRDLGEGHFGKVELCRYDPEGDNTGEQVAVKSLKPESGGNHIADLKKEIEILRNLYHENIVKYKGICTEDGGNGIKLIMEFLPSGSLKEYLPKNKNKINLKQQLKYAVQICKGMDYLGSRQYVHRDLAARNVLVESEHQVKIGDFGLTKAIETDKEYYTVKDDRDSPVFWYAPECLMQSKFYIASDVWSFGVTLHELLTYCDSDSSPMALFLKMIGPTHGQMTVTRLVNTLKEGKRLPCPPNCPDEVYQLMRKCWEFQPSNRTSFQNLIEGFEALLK
MEASUREMENT TYPE: JAK1 RV (ratio between the inhibitory rate of the test compound and that of Xeljanz)
Simply state the number, no unit and no words.

What JAK1 RV (ratio between the inhibitory rate of the test compound and that of Xeljanz) value was documented for this compound, C=CC(=O)N(C)c1cc(Nc2ncc(Cl)c(NCCCNC(=O)c3ccc(C#N)c(F)c3)n2)ccc1F [Example 56] ?
0.05

And C=CC(=O)N(C)c1cc(Nc2ncc(C)c(NCCCNC(=O)c3ccc(C#N)cc3)n2)ccc1F [Example 58] ?
0.01

Further, for C=CC(=O)N(C)c1cc(Nc2ncc(Cl)c(NCCCNC(=O)c3ccc(C)cc3)n2)ccc1F [Example 83] ?
0.42

Same question for C=CC(=O)N(C)c1cc(Nc2ncc(Cl)c(NCCCNC(=O)c3cccc(C(F)(F)F)c3)n2)ccc1F [Example 91] please.
0.24

* * *

biological target: UniProtKB O60674; test: Z'-LYTE enzymatic activity detection, JAK2; format: biochemical; conditions: test compound 30 nM; read-out: JAK2 % inhibitory rate @30 nM
Sequence (O60674 whole entry): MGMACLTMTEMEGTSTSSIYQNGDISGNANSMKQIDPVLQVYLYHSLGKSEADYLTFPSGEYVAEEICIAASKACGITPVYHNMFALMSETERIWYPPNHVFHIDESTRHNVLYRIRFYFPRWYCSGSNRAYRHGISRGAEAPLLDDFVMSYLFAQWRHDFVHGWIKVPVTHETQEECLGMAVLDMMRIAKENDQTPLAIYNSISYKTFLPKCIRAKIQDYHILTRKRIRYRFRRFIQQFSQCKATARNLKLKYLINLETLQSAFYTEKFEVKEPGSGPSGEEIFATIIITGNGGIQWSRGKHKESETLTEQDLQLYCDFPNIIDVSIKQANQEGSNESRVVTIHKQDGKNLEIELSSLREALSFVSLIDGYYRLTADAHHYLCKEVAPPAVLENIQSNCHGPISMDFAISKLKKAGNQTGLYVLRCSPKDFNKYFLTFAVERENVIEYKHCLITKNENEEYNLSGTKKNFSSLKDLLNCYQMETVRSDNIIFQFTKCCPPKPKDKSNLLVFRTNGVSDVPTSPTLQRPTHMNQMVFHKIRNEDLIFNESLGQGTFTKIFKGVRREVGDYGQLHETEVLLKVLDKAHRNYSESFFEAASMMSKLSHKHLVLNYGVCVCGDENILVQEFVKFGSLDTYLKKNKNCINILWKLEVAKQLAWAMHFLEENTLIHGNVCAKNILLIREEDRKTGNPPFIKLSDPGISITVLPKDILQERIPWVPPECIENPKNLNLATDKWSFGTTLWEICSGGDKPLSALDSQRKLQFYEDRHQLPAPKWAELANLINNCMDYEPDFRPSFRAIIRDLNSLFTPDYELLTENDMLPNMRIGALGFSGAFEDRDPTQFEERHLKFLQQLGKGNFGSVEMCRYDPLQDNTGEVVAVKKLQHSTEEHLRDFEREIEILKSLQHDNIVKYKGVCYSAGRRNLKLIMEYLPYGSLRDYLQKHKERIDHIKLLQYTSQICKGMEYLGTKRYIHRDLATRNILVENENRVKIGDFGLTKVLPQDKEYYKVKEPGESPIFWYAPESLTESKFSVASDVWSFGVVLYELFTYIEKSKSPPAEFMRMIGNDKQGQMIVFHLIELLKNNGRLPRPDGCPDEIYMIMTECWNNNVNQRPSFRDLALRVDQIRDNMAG
MEASUREMENT TYPE: inhibition at 0.03 µM (%)
Your answer should be a plain number; it is taken to be in %.

Which inhibition at 0.03 µM value belongs to C=CC(=O)N(C)c1cc(Nc2ncc(Cl)c(NCCCNC(=O)c3ccc(O)cc3)n2)ccc1F [Example 48] ?
0

Same lookup for C=CC(=O)N(C)c1cc(Nc2ncc(Cl)c(NCCCNC(=O)c3ccccc3)n2)ccc1F [Example 87] , please.
0

Same lookup for C=CC(=O)N(C)c1cc(Nc2ncc(C)c(NCCCNC(=O)c3ccc(F)cc3)n2)ccc1F [Example 19] , please.
0

Then this compound: C=CC(=O)N(C)c1cc(Nc2ncc(Cl)c(NCCCNC(=O)c3cc(F)c(F)c(F)c3F)n2)ccc1F [Example 107]
0

Now the same for C=CC(=O)N(C)c1cc(Nc2ncc(Cl)c(OCCCNC(=O)c3ccc(C#N)cc3)n2)ccc1F [Example 71]
1

Cool, now C=CC(=O)Nc1cc(Nc2ncc(Cl)c(NCCCNC(=O)c3ccc(C#N)cc3)n2)ccc1F [Example 28]
2

Entry to check: C=CC(=O)N(C)c1cc(Nc2ncc(Cl)c(NCCCNC(=O)c3ccc(N(C)C)cc3)n2)ccc1F [Example 32]
2

Further, for C=CC(=O)N(C)c1cc(Nc2ncc(Cl)c(NCCCNC(=O)c3cccc(C#N)c3)n2)ccc1F [Example 95] ?
0
